Tested on: c-Src
protocol.summary: phosphorylation enrichment, bacterial display (enrichment ratio); higher = better substrate or ligand; peptides without Tyr show the background
quantity: phosphorylation enrichment
Simply state the number, no unit and no words.

{"residue.codes": "IVEFAYNDKAV [PUM3_Y259_I264V_YF]", "phosphorylation enrichment": 0.547}
{"residue.codes": "RAVLLYEFVGK [NATD1_Y45_YF]", "phosphorylation enrichment": 5.67}

Q) Param readout= phosphorylation enrichment; system= c-Src; entry= YNDSTYNQQLI [ZPLD1_Y198] ; returns value.
A) 0.51

Q) Param readout= phosphorylation enrichment; system= c-Src; entry= TKEPKYGGAGS [KIAA1210_Y1615_E1616G] ; returns value.
A) 0.409

Q) Param readout= phosphorylation enrichment; system= c-Src; entry= TSHKGYVAFLE [CARD9_Y76_G72S] ; returns value.
A) 0.354

Q) Param readout= phosphorylation enrichment; system= c-Src; entry= SVICTYSPALN [TP53_Y126_T123I] ; returns value.
A) 0.58

Q) Param readout= phosphorylation enrichment; system= c-Src; entry= RGYRVCYTPDS [PTPRF_Y450_Y450C] ; returns value.
A) 0.985

###

Documented SH2 binding enrichment across a set of sequences
study.system: SHP2-C SH2;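 note: peptide library displayed on the E. coli surface as eCPX fusions, selected cells deep-sequenced, score is each peptide's frequency after selection divided by its frequency in the input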
protocol.summary: SH2 binding enrichment of the phosphorylated peptide, bacterial display (enrichment ratio); higher = better substrate or ligand; peptides without Tyr show the background
Simply state the number, no unit and no words.

Use the examples below as a reference point.
{"residue.codes": "AFLQTYSHEVS [PCDHGA5_Y753]", "SH2 binding enrichment": 0.873}
{"residue.codes": "SSMIDYNLLEK [MYOC_Y479_P481L]", "SH2 binding enrichment": 0.692}
{"residue.codes": "EITSHYRHLLR [ZBTB46_Y14]", "SH2 binding enrichment": 0.661}
{"residue.codes": "LDPMVYMNDKS [PTK2B_Y834]", "SH2 binding enrichment": 0.792}
{"residue.codes": "KNKLNYTLPQD [NRAP_Y523]", "SH2 binding enrichment": 0.834}

Q) Returns the measured SH2 binding enrichment for the input sequence. Input: TTSQPYRRLCS [USH2A_Y534_C536R]
A) 0.542

###

Tested on: c-Abl (mouse)
protocol.summary: phosphorylation enrichment, bacterial display (enrichment ratio); higher = better substrate or ligand; peptides without Tyr show the background
Would you please tag the item true (1) when its phosphorylation enrichment is 0.7 or above, and false (0) when it is below?

Consider the following illustrative entries.
{"residue.codes": "PSDSGYSYETI [MAP1B_Y1921]", "group": "false (0)"}
{"residue.codes": "DISEPYEVFRI [IRF8_Y107_K108E_YF]", "group": "true (1)"}
{"residue.codes": "NPSYNYEIVNQ [DYNC1H1_Y3379_R3384Q]", "group": "false (0)"}
{"residue.codes": "DTCPPYVLSQV [GJB4_Y237_G242V]", "group": "false (0)"}
{"residue.codes": "IFGVSYGEYRY [CFTR_Y512_D513G]", "group": "false (0)"}

Q) // inclusive: phosphorylation enrichment at least 0.7? input: GLGGGYGGASG [KRT8_Y54]
A) false (0)

Q) // inclusive: phosphorylation enrichment at least 0.7? input: SSTAMYSAPGR [PSMB1_Y8]
A) true (1)

Q) // inclusive: phosphorylation enrichment at least 0.7? input: LTDTVYSSSSA [OR4C12_Y71_I67T]
A) true (1)

###

study.system: MERTK (UniProt Q12866)
Sequence (Q12866 whole entry, looked up): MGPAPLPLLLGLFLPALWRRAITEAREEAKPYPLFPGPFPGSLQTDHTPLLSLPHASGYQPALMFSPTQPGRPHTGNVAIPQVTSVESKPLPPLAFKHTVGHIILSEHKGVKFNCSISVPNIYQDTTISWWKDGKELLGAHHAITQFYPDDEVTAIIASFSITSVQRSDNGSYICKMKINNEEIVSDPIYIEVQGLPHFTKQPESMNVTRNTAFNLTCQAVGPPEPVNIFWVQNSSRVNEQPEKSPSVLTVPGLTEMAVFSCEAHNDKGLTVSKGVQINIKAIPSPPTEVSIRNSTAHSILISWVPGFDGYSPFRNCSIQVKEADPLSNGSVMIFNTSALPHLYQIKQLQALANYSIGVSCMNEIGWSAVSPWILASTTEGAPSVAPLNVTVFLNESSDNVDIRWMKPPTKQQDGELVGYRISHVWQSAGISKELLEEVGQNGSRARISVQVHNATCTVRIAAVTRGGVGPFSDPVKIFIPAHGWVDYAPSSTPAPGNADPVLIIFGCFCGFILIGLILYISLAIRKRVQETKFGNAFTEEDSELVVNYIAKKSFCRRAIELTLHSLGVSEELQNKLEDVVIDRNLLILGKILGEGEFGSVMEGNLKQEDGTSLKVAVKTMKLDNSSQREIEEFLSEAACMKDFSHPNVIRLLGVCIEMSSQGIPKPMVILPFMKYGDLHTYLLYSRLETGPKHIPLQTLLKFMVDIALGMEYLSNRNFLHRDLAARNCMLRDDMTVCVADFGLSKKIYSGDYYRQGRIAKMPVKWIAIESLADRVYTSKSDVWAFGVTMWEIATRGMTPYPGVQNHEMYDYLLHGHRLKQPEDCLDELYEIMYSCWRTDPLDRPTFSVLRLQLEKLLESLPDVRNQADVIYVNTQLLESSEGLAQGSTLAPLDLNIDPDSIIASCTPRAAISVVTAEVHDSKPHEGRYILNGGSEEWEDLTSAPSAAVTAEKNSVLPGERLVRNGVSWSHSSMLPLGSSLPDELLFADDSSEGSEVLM
protocol.summary: phosphorylation enrichment, bacterial display (enrichment ratio); higher = better substrate or ligand; peptides without Tyr show the background
Would you please tag the item Y when its phosphorylation enrichment is 0.6 or above, and N when it is below?

{"residue.codes": "FAKTQYPDVYA [CRX_Y63]", "study.system": "MERTK (UniProt Q12866)", "group": "N"}
{"residue.codes": "MSFDRYMAVCH [OR2A5_Y123_I126V_YF]", "study.system": "MERTK (UniProt Q12866)", "group": "N"}
{"residue.codes": "CPYNLYAAQLS [HGD_Y40_E42A]", "study.system": "MERTK (UniProt Q12866)", "group": "Y"}
{"residue.codes": "PDNKPYIFKVF [PIK3AP1_Y553_E551K]", "study.system": "MERTK (UniProt Q12866)", "group": "N"}
{"residue.codes": "RRQDLYSARDL [SART1_Y249]", "study.system": "MERTK (UniProt Q12866)", "group": "Y"}
{"residue.codes": "MDDKEYYSVHN [MET_Y1234_Y1230D]", "study.system": "MERTK (UniProt Q12866)", "group": "N"}

Q) // inclusive: phosphorylation enrichment at least 0.6? input: RGSQQYRALPV [TUBB8_Y281_T285P]
A) N

Q) // inclusive: phosphorylation enrichment at least 0.6? input: NDFGNYSNQSS [HNRNPA1_Y318_N319S]
A) N

Q) // inclusive: phosphorylation enrichment at least 0.6? input: LLFRVYGLESL [INSR_Y94]
A) Y

###

Documented phosphorylation enrichment across a set of sequences
study.system: EPHB2 (UniProt P29323)
Sequence (P29323 whole entry, looked up): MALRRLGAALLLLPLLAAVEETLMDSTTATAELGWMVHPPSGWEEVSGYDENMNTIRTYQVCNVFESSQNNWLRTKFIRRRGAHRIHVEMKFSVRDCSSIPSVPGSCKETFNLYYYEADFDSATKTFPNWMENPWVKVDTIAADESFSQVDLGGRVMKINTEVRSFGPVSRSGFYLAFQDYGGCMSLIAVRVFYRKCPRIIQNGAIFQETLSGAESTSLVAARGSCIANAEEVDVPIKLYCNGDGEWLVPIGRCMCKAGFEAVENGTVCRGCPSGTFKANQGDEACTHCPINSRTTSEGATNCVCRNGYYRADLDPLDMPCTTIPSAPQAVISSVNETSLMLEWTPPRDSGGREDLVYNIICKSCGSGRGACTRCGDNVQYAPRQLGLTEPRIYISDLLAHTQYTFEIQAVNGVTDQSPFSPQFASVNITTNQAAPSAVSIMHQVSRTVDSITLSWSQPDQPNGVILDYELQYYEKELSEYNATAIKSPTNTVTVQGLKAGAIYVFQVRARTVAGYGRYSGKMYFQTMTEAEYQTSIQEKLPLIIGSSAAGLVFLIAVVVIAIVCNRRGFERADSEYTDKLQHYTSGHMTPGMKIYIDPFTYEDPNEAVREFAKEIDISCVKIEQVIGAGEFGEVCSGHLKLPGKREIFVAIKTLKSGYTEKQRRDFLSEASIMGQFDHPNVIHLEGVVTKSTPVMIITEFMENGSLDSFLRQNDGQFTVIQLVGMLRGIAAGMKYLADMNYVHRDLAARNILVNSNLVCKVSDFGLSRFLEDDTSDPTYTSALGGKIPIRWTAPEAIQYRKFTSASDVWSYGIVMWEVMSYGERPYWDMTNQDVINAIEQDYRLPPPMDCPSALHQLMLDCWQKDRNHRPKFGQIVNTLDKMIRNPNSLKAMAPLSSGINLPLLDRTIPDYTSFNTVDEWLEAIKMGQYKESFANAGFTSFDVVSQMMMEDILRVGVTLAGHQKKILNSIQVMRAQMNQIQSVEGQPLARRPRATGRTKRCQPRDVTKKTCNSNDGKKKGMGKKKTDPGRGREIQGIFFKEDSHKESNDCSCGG
protocol.summary: phosphorylation enrichment, bacterial display (enrichment ratio); higher = better substrate or ligand; peptides without Tyr show the background
Simply state the number, no unit and no words.

Use the examples below as a reference point.
{"residue.codes": "REVPVYISEDS [SYNM_Y460_G462S]", "study.system": "EPHB2 (UniProt P29323)", "phosphorylation enrichment": 1.07}
{"residue.codes": "KSPDSYQKILP [ATM_Y1415_L1420P]", "study.system": "EPHB2 (UniProt P29323)", "phosphorylation enrichment": 0.321}
{"residue.codes": "LVMFIYAIFGM [SCN1A_Y1684]", "study.system": "EPHB2 (UniProt P29323)", "phosphorylation enrichment": 1.03}

Q) Returns the measured phosphorylation enrichment for the input sequence. Input: LTDTVYSSSSA [OR4C12_Y71_I67T]
A) 0.374

Q) Returns the measured phosphorylation enrichment for the input sequence. Input: SIKGKYVTALF [KCNH2_Y611_D609G_YF]
A) 0.409

Q) Returns the measured phosphorylation enrichment for the input sequence. Input: KFVKMCDNHQL [MYO9A_Y203_Y203C_YF]
A) 0.384

###

System: c-Src
protocol.summary: phosphorylation enrichment, bacterial display (enrichment ratio); higher = better substrate or ligand; peptides without Tyr show the background
Would you please tag the item t when its phosphorylation enrichment is 0.5 or above, and f when it is below?

Consider the following illustrative entries.
{"residue.codes": "FSGDFYRIQGR [DDR2_Y741_YF]", "study.system": "c-Src", "group": "t"}
{"residue.codes": "YEREQYADRTR [RBM4_Y355_A359T]", "study.system": "c-Src", "group": "f"}
{"residue.codes": "TVLEPYADPYY [ZC3H18_Y367]", "study.system": "c-Src", "group": "t"}

Q) // inclusive: phosphorylation enrichment at least 0.5? input: KVMANYMYKAG [MAML2_Y513]
A) f

Q) // inclusive: phosphorylation enrichment at least 0.5? input: MSFDRYMAVCH [OR2A5_Y123_I126V_YF]
A) f

Q) // inclusive: phosphorylation enrichment at least 0.5? input: WCSNDYLGMSQ [ALAS2_Y199_R204Q]
A) t

Q) // inclusive: phosphorylation enrichment at least 0.5? input: LVMFIYAIFGM [SCN1A_Y1684]
A) t

Q) // inclusive: phosphorylation enrichment at least 0.5? input: VEQIHYIGQNE [HMOX2_Y140_R137Q]
A) f

###

Test system: c-Abl (mouse)
protocol.summary: phosphorylation enrichment, bacterial display (enrichment ratio); higher = better substrate or ligand; peptides without Tyr show the background
Would you please tag the item YES when its phosphorylation enrichment is 0.6 or above, and NO when it is below?

{"residue.codes": "IENKLYGTSDP [RET_Y1062_M1064T]", "study.system": "c-Abl (mouse)", "group": "YES"}

Q) // inclusive: phosphorylation enrichment at least 0.6? input: PTTKTYLPHFD [HBA1_Y43_F44L]
A) NO

Q) // inclusive: phosphorylation enrichment at least 0.6? input: KLKRSYSSPDI [USP8_Y717]
A) NO

Q) // inclusive: phosphorylation enrichment at least 0.6? input: LGQRIYQYIQS [DYRK1B_Y271]
A) YES

Q) // inclusive: phosphorylation enrichment at least 0.6? input: GQRDLYSGLNQ [CD3E_Y199]
A) YES

Q) // inclusive: phosphorylation enrichment at least 0.6? input: LSVMSYDLGMF [GBA3_Y174]
A) YES

Q) // inclusive: phosphorylation enrichment at least 0.6? input: HQNGTYGLHQD [SGSH_Y89_M88T]
A) NO

Q) // inclusive: phosphorylation enrichment at least 0.6? input: SFDLDYDSVQP [MYC_Y16_N11S_YF]
A) YES

Q) // inclusive: phosphorylation enrichment at least 0.6? input: TNYPLYLRSLE [MTM1_Y71_R69P]
A) YES
